tested on: opioid receptor kappa (Homo sapiens)
Construct: expressed in transfected cells
experiment summary: GTPγ[35S] binding assay, antagonism of dynorphin-A
Assay type: biochemical
condition context: read-out: Kappa functional (GTPγ[35S] binding Ki)
pKi: −log10 of the molar value. Counter-ions that a name gives are not always drawn.
endpoint: pKi

> print(dat)
                                   compound                             tested.on  endpoint  assay.value
1  NC(=O)c1ccc(-c2ccc(CNC3Cc4ccccc4C3)cc2)c(Cl)c1 [4B-30]  opioid receptor kappa (Homo sapiens)       pKi         9.07
2  NC(=O)c1ccc(F)c(-c2cc(F)c(CNC3Cc4ccccc4C3)c(F)c2)c1 [1A-11]  opioid receptor kappa (Homo sapiens)       pKi         7.91
3  NC(=O)c1cccc(-c2ccc(CNCCC3CCOCC3)cc2Cl)c1 [4A-08]  opioid receptor kappa (Homo sapiens)       pKi         7.89
4  Cc1cc(C(N)=O)ccc1-c1ccc(CNCCC(C)C)c(Cl)c1 [E3-01, hydrochloride salt]  opioid receptor kappa (Homo sapiens)       pKi         8.76
5  Cc1cc(C(N)=O)ccc1-c1ccc(CNCCC2CC2)cc1 [4B-11]  opioid receptor kappa (Homo sapiens)       pKi         8.24
6  Cc1cc(C(N)=O)ccc1-c1c(F)cc(CNC2Cc3ccccc3C2)cc1F [1B-04]  opioid receptor kappa (Homo sapiens)       pKi         7.70
7  Cc1cc(C(N)=O)ccc1-c1ccc(CNCc2ccc3c(c2)CCO3)cc1 [4B-20]  opioid receptor kappa (Homo sapiens)       pKi         7.46
8  Cc1cc(C(N)=O)ccc1-c1ccc(CNCc2cccc(Cl)c2)cc1 [4B-10]  opioid receptor kappa (Homo sapiens)       pKi         8.80
9  Cc1cc(C(N)=O)ccc1-c1ccc(CN[C@@H]2CCCc3ccccc32)cc1 [4B-28]  opioid receptor kappa (Homo sapiens)       pKi         8.39

* * *

tested on: opioid receptor delta (Homo sapiens, UniProt P41143)
Construct: expressed in transfected cells
Sequence (P41143 whole entry): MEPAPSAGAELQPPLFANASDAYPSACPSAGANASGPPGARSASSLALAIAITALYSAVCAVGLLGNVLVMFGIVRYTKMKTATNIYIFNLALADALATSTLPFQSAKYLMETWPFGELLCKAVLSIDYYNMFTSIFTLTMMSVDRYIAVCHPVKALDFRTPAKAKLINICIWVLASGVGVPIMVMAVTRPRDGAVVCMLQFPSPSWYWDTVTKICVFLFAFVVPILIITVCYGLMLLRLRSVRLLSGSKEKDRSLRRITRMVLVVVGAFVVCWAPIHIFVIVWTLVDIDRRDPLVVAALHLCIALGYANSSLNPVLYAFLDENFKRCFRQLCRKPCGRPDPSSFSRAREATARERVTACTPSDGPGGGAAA
experiment summary: GTPγ[35S] binding assay, antagonism of BW-373U86
Type: biochemical
condition context: average Ki; antagonism of BW-373U86 (1 nM) at delta opioid receptor membranes; read-out: Delta functional Ki (GTPγ[35S] binding)
endpoint: Ki (nM)

> print(dat)
                                    compound  endpoint  assay.value
 1  CCOCCNCc1ccc(-c2cccc(C(N)=O)c2)c(Cl)c1 [6A-01]        Ki         25.5
 2  Cn1c(=O)n(C)c2cc(CNCc3ccc(-c4cccc(C(N)=O)c4)c(Cl)c3)ccc21 [6A-04]        Ki         32.3
 3  Cc1cc(C(N)=O)cnc1-c1ccc(CNCCC(C)C)cc1 [4C-04]        Ki         21.9
 4  Cc1cc(C(N)=O)ccc1-c1cc(F)c(CNCCC2CCOCC2)c(F)c1 [4B-50]        Ki        0.135
 5  Cc1cc(C(N)=O)ccc1-c1c(C)cc(CNCC2CCCO2)cc1Cl (centres unmarked) [4B-91]        Ki         24.5
 6  COCCNCc1ccc(-c2cccc(C(N)=O)c2)c(Cl)c1 [6A-07]        Ki       0.0652
 7  NC(=O)c1ccc(-c2ccc(CNC3Cc4ccccc4C3)cc2Cl)c(Cl)c1 [4B-68]        Ki        0.724
 8  Cc1cc(C(N)=O)ccc1-c1cc(F)c(CNC2Cc3ccccc3C2)cc1F [4B-75]        Ki        0.309
 9  CC(C)CCNCc1ccc(-c2ncc(C(N)=O)cc2Cl)cc1 [4C-01]        Ki         33.8
10  CC1(C)OCC(CNCc2ccc(-c3ccc(C(N)=O)cc3Cl)c(Cl)c2)O1 (centres unmarked) [4B-79]        Ki         1.42
11  CC(C)CCNCc1ccc(-c2cc(-c3ncn[nH]3)ccc2F)cc1 [7A-02]        Ki         5.26

* * *

tested on: opioid receptor mu (Homo sapiens, UniProt P35372)
Construct: expressed in transfected cells
Sequence (P35372 whole entry): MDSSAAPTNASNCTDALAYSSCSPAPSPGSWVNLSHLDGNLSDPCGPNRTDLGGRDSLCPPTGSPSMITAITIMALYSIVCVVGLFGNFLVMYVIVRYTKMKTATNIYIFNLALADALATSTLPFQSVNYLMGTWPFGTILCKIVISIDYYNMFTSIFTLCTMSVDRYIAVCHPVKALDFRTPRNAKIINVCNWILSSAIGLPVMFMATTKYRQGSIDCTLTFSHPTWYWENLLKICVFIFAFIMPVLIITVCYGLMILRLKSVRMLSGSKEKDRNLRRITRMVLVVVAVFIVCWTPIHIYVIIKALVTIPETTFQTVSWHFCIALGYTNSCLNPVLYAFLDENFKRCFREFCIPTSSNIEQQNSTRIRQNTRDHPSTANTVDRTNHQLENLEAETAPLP
experiment summary: GTPγ[35S] binding assay, antagonism of endorphin
Type: biochemical
condition context: read-out: Mu functional (GTPγ[35S] binding Ki)
# maps each entry to its Ki
endpoint: Ki (nM)

> print(dat)
                                   compound  assay.value
1  Cc1cc(C(N)=O)ccc1-c1ccc(CNC2Cc3ccccc3C2)cn1 [1D-03]        0.541
2  NC(=O)c1ccc(-c2ccc(CNC3Cc4ccccc4C3)nc2)c(Cl)c1 [1D-05]         1.85
3  CC(C)CCNCc1ccc(-c2ccc(C(N)=O)cc2C(F)(F)F)cc1 [4B-02]         57.2
4  Cc1cc(C(N)=O)ccc1-c1ccc(CNCCOc2ccccc2)cc1 [4B-16]         2.82
5  NC(=O)c1ccc(-c2ccc(CNC3Cc4ccccc4C3)cc2)c(Cl)c1 [4B-30]         0.41
6  Cc1cc(C(N)=O)cc(C)c1-c1ccc(CNC2Cc3ccccc3C2)cc1 [4B-32]       0.0492

* * *

tested on: opioid receptor kappa (Homo sapiens, UniProt P41145)
Construct: expressed in transfected cells
Sequence (P41145 whole entry): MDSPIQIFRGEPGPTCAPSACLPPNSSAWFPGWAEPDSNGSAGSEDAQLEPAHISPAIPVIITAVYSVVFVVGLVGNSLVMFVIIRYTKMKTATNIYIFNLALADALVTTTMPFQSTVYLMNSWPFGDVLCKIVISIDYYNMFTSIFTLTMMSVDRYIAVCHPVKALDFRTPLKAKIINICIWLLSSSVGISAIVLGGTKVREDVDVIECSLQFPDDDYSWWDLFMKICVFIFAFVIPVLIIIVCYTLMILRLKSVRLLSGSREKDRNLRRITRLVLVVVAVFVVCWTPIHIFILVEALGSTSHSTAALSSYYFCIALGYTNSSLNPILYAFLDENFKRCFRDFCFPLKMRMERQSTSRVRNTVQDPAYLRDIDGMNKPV
experiment summary: GTPγ[35S] binding assay, antagonism of dynorphin-A
Type: biochemical
condition context: average Ki; antagonism of dynorphin-A (10 nM) stimulated GTPγ[35S] binding, kappa opioid receptor membranes; read-out: Kappa functional (GTPγ[35S] binding Ki)
pKi: −log10 of the molar value.
endpoint: pKi

> print(dat)
                                    compound  assay.value
 1  CC1(C)OCC(CNCc2ccc(-c3cccc(C(N)=O)c3)c(Cl)c2)O1 (stereo not drawn)         7.50
 2  CC(C)CCNCc1cc(F)c(-c2cccc(C(N)=O)c2)cc1F         7.06
 3  CC(C)CCNCc1cc(F)c(-c2cc(C(N)=O)ccc2F)cc1F         7.29
 4    Cc1cc(CNCCC(C)C)ccc1-c1ncc(C(N)=O)cc1C         8.05
 5    COCCNCc1c(F)cc(-c2ccc(C(N)=O)cc2C)cc1F         7.75
 6      CC(C)CCNCc1ccc(-c2cccc(C(N)=O)c2)cc1         7.57
 7     Cc1cc(CNCCC(C)C)ccc1-c1cccc(C(N)=O)c1         7.94
 8  Cc1cc(C(N)=O)ccc1-c1ccc(CNCCC(C)C)c(F)c1         8.72
 9  CC(C)CCNCc1c(F)cc(-c2ccc(C(N)=O)cc2)cc1F         6.79
10  CC(C)CCNCc1ccc(-c2cc(C(N)=O)ccc2F)c(F)c1.Cl         7.84
11   CC(C)CCNCc1ccc(-c2ccc(F)c(C(N)=O)c2)cc1         6.14
12    CC(C)CCNCc1ccc(-c2cc(C(N)=O)ccc2F)cc1F         7.46
13     Cc1cc(C(N)=O)ccc1-c1ccc(CNCCC(C)C)nc1         7.77
14  Cc1cc(CNCCC(C)C)cc(C)c1-c1cccc(C(N)=O)c1         8.17
15    COc1cc(-c2cccc(C(N)=O)c2)ccc1CNCCC(C)C         7.78
16    CC(C)CCNCc1ccc(-c2cccc(C(N)=O)c2)cc1Cl         7.63
17     Cc1cc(CNCCC(C)C)ccc1-c1ccc(C(N)=O)cc1         7.61
18  Cc1cc(C(N)=O)ccc1-c1ccc(CNCCCc2ccccc2)cc1.Cl         8.66
19   CC(C)CCNCc1ccc(-c2cc(F)cc(C(N)=O)c2)cc1         7.22
20  CC(C)CCNCc1ccc(-c2cccc(C(N)=O)c2)c(C#N)c1         7.54
21     Cc1cc(C(N)=O)ccc1-c1ccc(CNCCC(C)C)cn1         7.83

* * *

tested on: opioid receptor mu (Homo sapiens)
Construct: expressed in transfected cells
experiment summary: GTPγ[35S] binding assay, antagonism of endorphin
Type: biochemical
condition context: average Ki; antagonism of endorphin (1 μM) stimulated GTPγ[35S] binding, mu opioid receptor membranes; read-out: Mu functional (GTPγ[35S] binding Ki)
pKi: −log10 of the molar value.
pKi: recorded values
endpoint: pKi

> print(dat)
                                    molecule  assay.value
 1      CC(C)CCNCc1ccc(-c2cccc(C(N)=O)c2)cc1         7.48
 2  Cc1cc(C(N)=O)ccc1-c1ccc(CNC2Cc3ccccc3C2)cc1.Cl        10.03
 3  CC(C)CCNCc1ccc(-c2cccc(C(N)=O)c2)c(Cl)c1         9.02
 4  CC(C)CCNCc1ccc(-c2cc(C(N)=O)ccc2F)c(F)c1.Cl         7.84
 5  Cc1cc(C(N)=O)ccc1-c1ccc(CNCCC(C)C)cc1F.Cl         8.05
 6  Cc1cc(CNCCC(C)C)cc(C)c1-c1cccc(C(N)=O)c1         8.90
 7     CC(C)CCNCc1ccc(-c2cccc(C(N)=O)c2)cc1O         7.28
 8    CC(C)CCNCc1ccc(-c2cc(C(N)=O)ccc2F)cc1F         7.39
 9    COCCNCc1c(F)cc(-c2ccc(C(N)=O)cc2C)cc1F         7.15
10  CC(C)CCNCc1c(F)cc(-c2ccc(C(N)=O)cc2)cc1F         6.97
11  CC(C)CCNCc1cc(F)c(-c2cc(C(N)=O)ccc2F)cc1F         7.19
12  CC1(C)OCC(CNCc2ccc(-c3cccc(C(N)=O)c3)c(Cl)c2)O1 (stereo not shown)         8.07
13    Cc1cc(CNCCC(C)C)ccc1-c1ncc(C(N)=O)cc1C         8.84
